Origin of the recorded values: patent US20190359693A1

Can you tell me VNA titer for the items I'm about to list?
# TESTED TARGET: HA of H5N1 A/PR8 H5N1 HK97 (influenza A virus)
# ASSAY DETAILS: cell-based or functional assay
Only the number, expressed in nM, is required.

Request: Returns the measured VNA titer for the input binder. Input: SD1045 (VHH) VHH: EVQLVESGGGLVQAGGSLRLSCAASGSSFSINVMGWYRQAPGKQREMVATITYGGSTNYVDSVKGRFTISRDNAKNTVYLQMNSLKPEDTAVYYCNSRLAQINYWGQGTQVTVSS
Result: 117

Request: Returns the measured VNA titer for the input binder. Input: SD1069 (VHH) VHH: EVQLVESGGGLVQAGDSLRLSCAASGPTFGMSAMGWFRQAPGKEREFVAAISGLGNPNYSDDVKGRFTISRENGRNTVYLQMNSLKPEDTAVYYCAQRKVYHVQGGDRPQAYDYWGQGTQVTVSS
Result: 242

Request: Returns the measured VNA titer for the input binder. Input: SD1076 (VHH) VHH: EVQLVESGGGLVQAGGSLTLSCAGSGFAFSIATMGWYRQAPGKQRELVADITSGGSTNYADSVKGRFTISRDNAKNTVYLQMNSLKPEDTAVYYCNADSLATGWRQYSYWGKGTQVTVSS
Result: 66.8

Request: Returns the measured VNA titer for the input binder. Input: SD1073 (VHH) VHH: EVQLVESGGGLVQAGGSLRLSCAASGSAFSIAAMGWYRQAPGKQRELVATITTGGSTNYADSVKGRFTISRDNSKNTAYLQMNSLKPEDTAVYYCTAKSVVAETFGDLYNYWGQGTQVTVSS
Result: 179
